Target: T1, CD123 (Homo sapiens (Human), UniProt P26951 19-305, limits assumed)
T1 sequence: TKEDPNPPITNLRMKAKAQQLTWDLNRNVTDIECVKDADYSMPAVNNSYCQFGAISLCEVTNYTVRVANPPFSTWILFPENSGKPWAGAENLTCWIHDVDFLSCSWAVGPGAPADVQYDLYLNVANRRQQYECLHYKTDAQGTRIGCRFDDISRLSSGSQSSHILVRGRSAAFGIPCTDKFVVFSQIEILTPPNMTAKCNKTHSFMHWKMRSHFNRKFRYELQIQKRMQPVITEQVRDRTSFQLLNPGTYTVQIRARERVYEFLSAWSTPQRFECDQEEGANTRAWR
Assay: ELISA, format not described
Design: unit not given here
Record form. Attribute: ELISA_avg. Fill in for each entry.
Give bare numbers.

[[record]]
binder = "D-domain SEQ ID NO: 341 (designed binder) MGSWIEFHERLWAIEDRLWALGGSEAELAAFEKEIAAFESELQAYKGKGNPEVESLREMAASIRHGLQAYRHN"
quantity_measured = "ELISA_avg"
recorded_measurement = 3.4

[[record]]
binder = "D-domain SEQ ID NO: 347 (designed binder) MGSWEEFWDRLFAIDDRLWALGGSEAELAAFEKEIAAFESELQAYKGKGNPEVETLRNEAAEIRMALQAYRHN"
quantity_measured = "ELISA_avg"
recorded_measurement = 3.1


Report ELISA_avg for every entry below.
1. D-domain SEQ ID NO: 340 (designed binder) MGSWIEFNMRVLAIEDRLWALGGSEAELAAFEKEIAAFESELQAYKGKGNPEVESLRYEACLDPWSSAAYRHN
2. D-domain SEQ ID NO: 342 (designed binder) MGSWFEFYERLWAIDDRLWALGGSEAELAAFEKEIAAFESELQAYKGKGNPEVEWLREEAASIRSSLQAYRHN
3. D-domain SEQ ID NO: 346 (designed binder) MGSWHEFWDRLEAIDDRLYALGGSEAELAAFEKEIAAFESELQAYKGKGNPEVEFLREEAAYIRELLQAYRHN
4. D-domain SEQ ID NO: 344 (designed binder) MGSWHEFWSRLDAIDDRLFALGGSEAELAAFEKEIAAFESELQAYKGKGNPEVEYLRGAAADIRAELQAYRHN
5. D-domain SEQ ID NO: 343 (designed binder) MGSWFEFWDRLEAIDDRLFALGGSEAELAAFEKEIAAFESELQAYKGKGNPEVESLRYNAAEIRKELQAYRHN

Reply:
1: 3.2; 2: 6; 3: 10.6; 4: 3.8; 5: 4.9

Report ELISA_avg for every entry below.
1. D-domain SEQ ID NO: 345 (designed binder) MGSWYEFWIRLEAIDDRLFALGGSEAELAAFEKEIAAFESELQAYKGKGNPEVDILRDFAADIRTELQAYRHN
2. D-domain SEQ ID NO: 348 (designed binder) MGSWWEFDDRLFAIDTRLMALGGSEAELAAFEKEIAAFESELQAYKGKGNPEVESLREWAATIRMELQAYRHN

Reply:
1: 10.4; 2: 3.5
